Measured values drawn from patent US10793538B2 for this set.

target: HDAC6 (Homo sapiens, UniProt Q9UBN7); construct: purchased BPS Bioscience; experiment: HDAC isoform inhibition, microfluidic lab-on-a-chip (Caliper) assay; type: biochemical; details: HDAC isoform 6; 2 μM FAM-labeled acetylated peptide substrate, 60 min, room temperature
Sequence (Q9UBN7 whole entry, canonical isoform): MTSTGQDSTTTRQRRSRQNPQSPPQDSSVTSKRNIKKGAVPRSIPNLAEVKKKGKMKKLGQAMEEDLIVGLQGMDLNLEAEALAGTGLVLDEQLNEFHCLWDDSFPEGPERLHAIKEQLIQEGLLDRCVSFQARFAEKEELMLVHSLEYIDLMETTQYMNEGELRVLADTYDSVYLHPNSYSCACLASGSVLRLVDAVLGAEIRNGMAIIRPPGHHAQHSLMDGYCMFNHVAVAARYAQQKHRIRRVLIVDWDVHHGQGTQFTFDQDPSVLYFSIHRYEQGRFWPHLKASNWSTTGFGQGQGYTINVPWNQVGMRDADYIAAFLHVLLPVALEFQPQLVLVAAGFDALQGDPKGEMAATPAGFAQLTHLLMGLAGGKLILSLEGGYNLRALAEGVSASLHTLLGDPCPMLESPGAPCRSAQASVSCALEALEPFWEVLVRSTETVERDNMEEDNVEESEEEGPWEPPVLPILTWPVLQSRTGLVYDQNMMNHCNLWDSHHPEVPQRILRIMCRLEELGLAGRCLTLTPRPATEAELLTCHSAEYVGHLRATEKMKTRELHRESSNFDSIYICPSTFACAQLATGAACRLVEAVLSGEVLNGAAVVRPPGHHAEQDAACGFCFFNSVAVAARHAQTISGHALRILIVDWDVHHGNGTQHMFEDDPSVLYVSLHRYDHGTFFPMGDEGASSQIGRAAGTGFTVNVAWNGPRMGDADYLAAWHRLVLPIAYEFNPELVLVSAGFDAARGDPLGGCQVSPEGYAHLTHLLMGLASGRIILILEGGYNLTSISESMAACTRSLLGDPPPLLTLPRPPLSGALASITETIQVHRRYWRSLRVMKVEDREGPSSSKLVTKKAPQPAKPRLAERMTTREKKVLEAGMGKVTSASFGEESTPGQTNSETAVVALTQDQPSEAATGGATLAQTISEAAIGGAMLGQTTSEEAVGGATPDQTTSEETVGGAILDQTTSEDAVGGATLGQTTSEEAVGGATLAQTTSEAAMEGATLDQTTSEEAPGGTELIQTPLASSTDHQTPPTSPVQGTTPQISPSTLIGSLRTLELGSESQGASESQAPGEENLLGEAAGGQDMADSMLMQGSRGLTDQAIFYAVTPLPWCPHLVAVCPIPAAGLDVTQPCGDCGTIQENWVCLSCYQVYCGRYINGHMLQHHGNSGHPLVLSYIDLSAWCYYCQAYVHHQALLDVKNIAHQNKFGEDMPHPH
Measure Name: IC50 (µM)
Please give a number only; it is taken to be in µM.

Compound: O=C(NO)C1=CCCCC1 [Compound 19A, N-Hydroxycyclohex-1-Enecarboxamide]
Target Of Assay: HDAC6 (Homo sapiens, UniProt Q9UBN7)
Unit Abbreviation: µM
Value Observed: 0.011

Compound: COc1ccc(C(=O)N2CCC=C(C(=O)NO)C2)cc1 [Compound 12A]
Target Of Assay: HDAC6 (Homo sapiens, UniProt Q9UBN7)
Unit Abbreviation: µM
Value Observed: 6.2

Compound: O=C(NO)C1=CCCC1 [Compound 21A, N-Hydroxycyclopent-1-Enecarboxamide]
Target Of Assay: HDAC6 (Homo sapiens, UniProt Q9UBN7)
Unit Abbreviation: µM
Value Observed: 0.024

Compound: O=C(NO)C1=CC(Sc2ccccc2)CCC1 (centres unmarked) [Compound 10A]
Target Of Assay: HDAC6 (Homo sapiens, UniProt Q9UBN7)
Unit Abbreviation: µM
Value Observed: 0.106

Compound: CC1=C(C(=O)NO)Cc2ccccc21 [Compound 29A]
Target Of Assay: HDAC6 (Homo sapiens, UniProt Q9UBN7)
Unit Abbreviation: µM
Value Observed: 0.049

Task: Param item = COc1ccc(CNC2C=C(C(=O)NO)CCC2)cc1 (centres unmarked) [Compound 7A] ; retrieve measured IC50.
Output: 2.68

Task: Param item = O=C(NO)C1=CCOCC1 [Compound 20A] ; retrieve measured IC50.
Output: 0.016

Task: Param item = O=C(NO)C1=Cc2ccccc2CC1 [Compound 32A] ; retrieve measured IC50.
Output: 0.014

Task: Param item = Cc1ccc(S(=O)(=O)N2CC=C(C(=O)NO)CC2)cc1 [Compound 31A] ; retrieve measured IC50.
Output: 0.014

---

molecular target: HDAC8 (Homo sapiens, UniProt Q9BY41); construct: purchased BPS Bioscience; test: HDAC isoform inhibition, microfluidic lab-on-a-chip (Caliper) assay; format: biochemical; settings: HDAC isoform 8; 2 μM FAM-labeled acetylated peptide substrate, 60 min, room temperature
Sequence (Q9BY41 whole entry, canonical isoform): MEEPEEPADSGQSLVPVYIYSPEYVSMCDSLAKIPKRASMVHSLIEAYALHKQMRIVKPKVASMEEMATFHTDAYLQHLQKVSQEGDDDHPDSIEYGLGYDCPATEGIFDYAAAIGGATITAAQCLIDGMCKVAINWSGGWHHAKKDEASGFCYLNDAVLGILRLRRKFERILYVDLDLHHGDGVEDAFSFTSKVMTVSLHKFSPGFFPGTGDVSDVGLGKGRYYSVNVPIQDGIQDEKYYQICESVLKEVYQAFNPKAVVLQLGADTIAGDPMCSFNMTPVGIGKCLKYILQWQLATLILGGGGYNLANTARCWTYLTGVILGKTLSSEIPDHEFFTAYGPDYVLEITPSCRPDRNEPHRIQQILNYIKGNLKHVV
Measure Name: IC50 (µM)
Please give a number only; it is taken to be in µM.

Compound: CC1=C(C(=O)NO)Cc2ccccc21 [Compound 29A]
Target Of Assay: HDAC8 (Homo sapiens, UniProt Q9BY41)
IC50 [µM]: 1.13

Task: Param item = O=C(NO)C1=Cc2ccccc2CC1 [Compound 32A] ; retrieve measured IC50.
Output: 0.626

Task: Param item = O=C(NO)C1=CC(Sc2ccccc2)CCC1 (stereo not drawn) [Compound 10A] ; retrieve measured IC50.
Output: 0.055

---

target: HDAC2 (Homo sapiens); construct: purchased BPS Bioscience; experiment: HDAC isoform inhibition, microfluidic lab-on-a-chip (Caliper) assay; type: biochemical; conditions: HDAC isoform 2; 2 μM FAM-labeled acetylated peptide substrate, 60 min, room temperature
Sequence (Q92769 whole entry, canonical isoform): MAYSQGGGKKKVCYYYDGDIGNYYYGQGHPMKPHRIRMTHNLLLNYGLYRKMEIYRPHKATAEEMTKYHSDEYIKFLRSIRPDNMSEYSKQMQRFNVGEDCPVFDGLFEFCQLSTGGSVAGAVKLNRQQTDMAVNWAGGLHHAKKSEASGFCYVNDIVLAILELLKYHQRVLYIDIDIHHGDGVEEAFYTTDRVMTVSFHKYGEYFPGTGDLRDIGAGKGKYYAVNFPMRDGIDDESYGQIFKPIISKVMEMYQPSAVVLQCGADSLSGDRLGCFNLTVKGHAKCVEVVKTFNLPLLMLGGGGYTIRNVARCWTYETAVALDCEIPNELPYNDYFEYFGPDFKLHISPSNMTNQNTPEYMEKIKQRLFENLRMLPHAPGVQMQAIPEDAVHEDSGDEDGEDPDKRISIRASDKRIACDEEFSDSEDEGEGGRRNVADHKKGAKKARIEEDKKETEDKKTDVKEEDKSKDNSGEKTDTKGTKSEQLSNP
# rule met = IC50 below 2 µM (exclusive); rule not met = IC50 at/above 2 µM

Use these answered entries as a reference point.
Compound: O=C(NO)C1=Cc2ccccc2CC1 [Compound 32A]
Classification: rule not met

Compound: CN1CCC=C(C(=O)NO)C1 [Compound 30A]
Classification: rule not met

Compound: CC1=C(C(=O)NO)Cc2ccccc21 [Compound 29A]
Classification: rule met

Compound: COc1ccc(C(=O)N2CCC=C(C(=O)NO)C2)cc1 [Compound 12A]
Classification: rule not met

Compound: O=C(NO)C1=CC(Sc2ccccc2)CCC1 (centres unmarked) [Compound 10A]
Classification: rule met

Task: Dear reviewer, please state whether O=C(NO)C1=C[C@@H](O)[C@@H](O)[C@H](O)C1 [Compound 22A] has IC50 strictly beneath 2 µM.
Output: rule not met

Task: Dear reviewer, please state whether O=C(NO)C1=CCCC1 [Compound 21A, N-Hydroxycyclopent-1-Enecarboxamide] has IC50 strictly beneath 2 µM.
Output: rule not met
